Source listed as PubChem BioAssay.

target: Mitogen-activated protein kinase 7 (Homo sapiens); assay: ERK5 transactivation activators in reporter cells, primary screen, cell-based, HTS (AID 1508626); conditions: HeLa Gal4-ERK5 transactivation, 18 h, at 5 µM;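 note: luciferase driven by Gal4-ERK5 fusion binding five Gal4 sites before minimal TATA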
The source made the active and inactive calls.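 Rule for the calls: active = luciferase signal above three times the same-plate solvent-only control wells; inactive = the rest.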
Entry note: the call must match one of TRUE = active, FALSE = inactive

COMPOUND: CC(C)(CO)[C@@H](O)C(=O)NCCC(=O)NCCSSCCNC(=O)CCNC(=O)[C@H](O)C(C)(C)CO
SYSTEM NAME: Mitogen-activated protein kinase 7 (Homo sapiens)
CATEGORY: TRUE
//
COMPOUND: COc1ccc(-c2cc(=O)c3c(O)cc(O[C@@H]4O[C@H](CO[C@@H]5O[C@@H](C)[C@H](O)[C@@H](O)[C@H]5O)[C@@H](O)[C@H](O)[C@H]4O)cc3o2)cc1O
SYSTEM NAME: Mitogen-activated protein kinase 7 (Homo sapiens)
CATEGORY: FALSE

Hi, do you know how COC(=O)C[C@H]1C(C)(C)[C@@H](O)[C@@H]2CC3=C4C=C(OC)O[C@@H](c5ccoc5)[C@]4(C)CCC3[C@@]1(C)C2=O (stereo partly drawn) came out in this test?
FALSE

---

assay: growth inhibition of CRL1545 osteosarcoma cells, cell-based, cisplatin and BGB IC20 combos (AID 1671464); conditions: single agent, at 5 µM, stronger effect = higher value;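 note: cells exposed to compound for 96 hours before readout; 0% = vehicle DMSO and 100% = high DMSO killing control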
ASSAY ENDPOINT: inhibition (%)
One number for each entry, in %.

Record inhibition per entry; entries follow.
1. CN1CCN(c2c(F)cc3c(=O)c(C(=O)O)cn(CCF)c3c2F)CC1
2. O=c1[nH]c(=O)n([C@H]2C[C@H](O)[C@@H](CO)O2)cc1Br
3. N=C(N=C(N)N)N1CCOCC1
4. COC1C(OC(N)=O)C(O)C(Oc2ccc3c(O)c(NC(=O)c4ccc(O)c(CC=C(C)C)c4)c(=O)oc3c2C)OC1(C)C (centres undefined)
5. O=c1cc[nH]c(=O)[nH]1
6. CN1C[C@@H]2C[C@H]1CN2c1cc2c(cc1F)c(=O)c(C(=O)O)cn2C1CC1
7. N=c1ccn2c(n1)O[C@H]1[C@H](O)[C@@H](CO)O[C@H]12
8. C[C@@H](CN1CC(=O)NC(=O)C1)N1CC(=O)NC(=O)C1

2.13
41.5
8.11
4.54
-35
-48.9
23.2
-52.7

Record inhibition per entry; entries follow.
1. CNC1CCCN(c2c(F)cc3c(=O)c(C(=O)O)cn(C4CC4)c3c2OC)C1 (centres undefined)
2. O=c1[nH]c(=O)n([C@H]2C[C@H](O)[C@@H](CO)O2)cc1C(F)(F)F
3. O=c1c(O)c(-c2ccc(O)c(O)c2)oc2cc(O)ccc12
4. CN1CCN(c2c(F)cc3c(=O)c(C(=O)O)cn4c3c2OCN4C)CC1
5. CCOC(=O)Nc1ccc(NCc2ccc(F)cc2)nc1N

[-16.1, 33.7, 6.36, 2.43, -34.9]

Look at this compound and give its reported inhibition. Nc1ccc2cc3ccc(N)cc3nc2c1
100

---

assay: stimulators of insulin release from INS-1E, primary screen, cell-based, 5 mM glucose, NPC library (AID 1117329); details: rat INS-1E insulin secretion, at 10 µM, stronger effect = higher value
ASSAY ENDPOINT: insulin secretion stimulation (%)
Numbers only, in %.

Past entries and their recorded results:
COMPOUND: C=CCc1cc(OC)c(O)c(C(=O)NCCO)c1
UNITS TEXT: %
MEASURED RESULT: -0.7

COMPOUND: CSCC[C@H](NC(=O)[C@H](Cc1c[nH]c2ccccc12)NC(=O)CCNC(=O)OC(C)(C)C)C(=O)N[C@@H](CC(=O)O)C(=O)N[C@@H](Cc1ccccc1)C(N)=O
UNITS TEXT: %
MEASURED RESULT: 0.8

COMPOUND: Clc1ccc(C(Cn2ccnc2)OCc2c(Cl)cccc2Cl)c(Cl)c1 (stereo not given)
UNITS TEXT: %
MEASURED RESULT: 3.1

COMPOUND: CN1CCC(Nc2ncc3ncnc(Nc4ccc(F)c(Cl)c4)c3n2)CC1
UNITS TEXT: %
MEASURED RESULT: 5.85

Look at this compound and give its reported insulin secretion stimulation. O=C1c2ccccc2C(=O)C1c1ccc(Br)cc1
4.3
